Cited source: patent US20240287172A1

# tested-on: T1, hiR1-FL-WT-T7 (human, UniProt Q96CC6 1-855)
# T1 construct: on MEF-DKO cells
# T1 sequence: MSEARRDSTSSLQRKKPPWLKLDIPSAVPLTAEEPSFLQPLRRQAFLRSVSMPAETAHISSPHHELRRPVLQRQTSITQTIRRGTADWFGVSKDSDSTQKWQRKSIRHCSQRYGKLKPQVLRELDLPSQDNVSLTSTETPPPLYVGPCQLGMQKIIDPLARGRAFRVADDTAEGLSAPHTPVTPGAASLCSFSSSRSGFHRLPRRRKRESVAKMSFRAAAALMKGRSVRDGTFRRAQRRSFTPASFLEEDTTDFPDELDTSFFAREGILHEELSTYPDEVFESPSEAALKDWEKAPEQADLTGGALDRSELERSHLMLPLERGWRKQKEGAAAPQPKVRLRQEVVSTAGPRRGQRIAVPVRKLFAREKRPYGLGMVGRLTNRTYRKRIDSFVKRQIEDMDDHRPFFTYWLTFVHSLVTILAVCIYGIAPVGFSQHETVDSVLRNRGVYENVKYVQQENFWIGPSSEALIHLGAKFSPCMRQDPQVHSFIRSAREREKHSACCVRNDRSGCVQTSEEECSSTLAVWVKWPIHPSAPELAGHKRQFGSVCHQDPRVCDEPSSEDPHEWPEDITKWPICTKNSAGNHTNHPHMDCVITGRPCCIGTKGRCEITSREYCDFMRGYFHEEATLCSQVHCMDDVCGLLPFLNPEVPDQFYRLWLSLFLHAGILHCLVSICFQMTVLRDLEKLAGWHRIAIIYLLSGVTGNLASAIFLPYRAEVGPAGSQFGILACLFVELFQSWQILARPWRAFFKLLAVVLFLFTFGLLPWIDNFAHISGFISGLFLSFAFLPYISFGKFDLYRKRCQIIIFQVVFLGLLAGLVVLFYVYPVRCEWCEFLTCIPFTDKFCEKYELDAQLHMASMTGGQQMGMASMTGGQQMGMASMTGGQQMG
# protocol-notes: FACS, MEF-DKO cells, 3 µg/ml
Reported loss of binding vs wild type by item:

antibody 34 (antibody, V domains shown, mouse IgG, kappa light chain; also called clone #34; purified antibody 34) VH: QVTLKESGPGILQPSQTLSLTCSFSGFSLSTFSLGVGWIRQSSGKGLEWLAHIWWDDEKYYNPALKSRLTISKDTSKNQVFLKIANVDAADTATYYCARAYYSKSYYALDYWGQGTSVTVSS VL: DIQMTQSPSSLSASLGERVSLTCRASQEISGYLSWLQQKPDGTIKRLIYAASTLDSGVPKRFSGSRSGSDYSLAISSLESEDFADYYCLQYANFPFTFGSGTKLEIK : ≥ 95%

Endpoint output: loss of binding vs wild type of antibody 43 (antibody, V domains shown, mouse IgG, kappa light chain; also called clone #43; purified antibody 43) VH: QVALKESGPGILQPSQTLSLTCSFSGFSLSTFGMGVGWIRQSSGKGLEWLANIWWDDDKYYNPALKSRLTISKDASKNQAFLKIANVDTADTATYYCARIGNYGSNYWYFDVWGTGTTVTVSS VL: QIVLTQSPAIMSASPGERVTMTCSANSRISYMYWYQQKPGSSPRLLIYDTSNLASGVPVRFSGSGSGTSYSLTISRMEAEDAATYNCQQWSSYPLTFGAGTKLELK . Value?
≥ 95%
